tested on: Glutathione S-Transferase; experiment: Glutathione S-transferase (GST) activity in tissue cytosol of treated mice, CDNB substrate; type: in vivo, Female A/J mice; details: colon; dose 0.04 mmol/Kg body weight, gavage
Here the recorded Ratio Test/con (GST) is given for each entry.
Reply briefly: the number, and no unit.

Example compounds with recorded Ratio Test/con (GST):
- Compound: "[Se]=C=NCc1ccc(CN=C=[Se])[se]1"
  Test Readout: "Ratio Test/con (GST)"
  Meas Value: 1.34
- Compound: "N#C[Se]Cc1ccc(C[Se]C#N)[se]1"
  Test Readout: "Ratio Test/con (GST)"
  Meas Value: 1.10
- Compound: "N#C[Se]Cc1ccc(C[Se]C#N)s1 [(2) TDMSC, thienyl-2,5-di-methylene selenocyanate]"
  Test Readout: "Ratio Test/con (GST)"
  Meas Value: 1.00
- Compound: "N#C[Se]Cc1ccc[se]1 [(3) SMSC, 2-selenophenyl methylene selenocynate]"
  Test Readout: "Ratio Test/con (GST)"
  Meas Value: 1.06

Kindly consider the entry below.
Lab book: Ratio Test/con (GST) of [Se]=C=NCc1ccc(CN=C=[Se])s1 noted as 1.14
